- Assay System: Caspase-4 (Homo sapiens)
- Construct: mixing the compounds with the respective active caspases; purchased BioVision K154-100
- Sequence (P49662 81-270 limits assumed): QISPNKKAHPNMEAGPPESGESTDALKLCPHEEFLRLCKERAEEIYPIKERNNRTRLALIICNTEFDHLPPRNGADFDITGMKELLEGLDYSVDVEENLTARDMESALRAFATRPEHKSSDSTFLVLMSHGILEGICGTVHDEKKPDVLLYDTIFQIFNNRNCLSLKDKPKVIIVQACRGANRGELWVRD
- Sequence (P49662 290-377 limits assumed): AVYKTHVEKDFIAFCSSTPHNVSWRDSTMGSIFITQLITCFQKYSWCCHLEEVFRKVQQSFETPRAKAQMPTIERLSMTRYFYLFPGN
- Experiment Summary: Caspase-4 inhibitor screening assay (BioVision kit, LEVD-AFC)
- Assay type: biochemical
- Applied Conditions: read-out: % Inhibition at 10 uM Casp4
Where a name gives a salt, the structure may show the parent alone.
Readout Kind: inhibition at 10 µM (%)

a. CC(C)[C@H](NC(=O)[C@@H](NC(=O)[C@H](CC(=O)O)NC(=O)OCc1ccccc1)c1ccccc1)C(=O)N[C@H](/C=C/S(C)(=O)=O)CCC(=O)O
b. CCC(C)[C@H](NC(=O)[C@H](CCC(=O)O)NC(=O)[C@@H](NC(=O)OCc1ccccc1)C(C)C)C(=O)N[C@H](/C=C/S(C)(=O)=O)CC(=O)O (some centres unmarked)
Of the pair a and b , name the member with the lesser recorded inhibition at 10 µM. Kindly state the label of the option you pick.
a
(a: 0%, b: 100%)

A. CCOC(=O)/C=C/[C@@H](N)CC(=O)O [Compound 44, Asp ethyl vinyl ester tosyl salt]
B. CC(C)[C@H](NC(=O)[C@H](CCC(=O)O)NC(=O)[C@H](Cc1c[nH]c2ccccc12)NC(=O)OCc1ccccc1)C(=O)N[C@H](/C=C/S(C)(=O)=O)CC(=O)O
Of the pair A and B , name the member with the lesser recorded inhibition at 10 µM. Kindly state the label of the option you pick.
A
(A: 0%, B: 100%)

====

- Assay System: Caspase-9 (Homo sapiens)
- Construct: purchased BioVision K159-100
- Sequence (P55211 1-315 limits assumed): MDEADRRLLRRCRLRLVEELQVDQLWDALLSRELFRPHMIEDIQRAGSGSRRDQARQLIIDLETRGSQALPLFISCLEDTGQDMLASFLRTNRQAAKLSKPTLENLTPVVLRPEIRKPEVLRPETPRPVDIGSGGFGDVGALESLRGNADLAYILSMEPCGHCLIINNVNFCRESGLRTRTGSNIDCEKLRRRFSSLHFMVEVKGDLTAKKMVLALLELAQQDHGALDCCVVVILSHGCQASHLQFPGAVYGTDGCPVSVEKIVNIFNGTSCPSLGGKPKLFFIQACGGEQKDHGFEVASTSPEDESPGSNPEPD
- Sequence (P55211 331-416 limits assumed): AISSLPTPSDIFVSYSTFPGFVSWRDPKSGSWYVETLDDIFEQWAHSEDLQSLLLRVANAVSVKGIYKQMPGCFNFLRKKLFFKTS
- Experiment Summary: Caspase-9 inhibitor screening assay (BioVision kit, LEHD-AFC)
- Assay type: biochemical
- Applied Conditions: read-out: IC50 Casp9
Readout Kind: IC50 (µM)

I. CC(C)[C@H](NC(=O)[C@H](Cc1cn(C)c2ccccc12)NC(=O)[C@H](CC(=O)O)NC(=O)OCc1ccccc1)C(=O)N[C@H](/C=C/S(C)(=O)=O)CC(=O)O [Compound 36]
II. CC(C)(C)[C@H](NC(=O)[C@H](CC(=O)O)NC(=O)OCc1ccccc1)C(=O)N1CCCC1C(=O)N[C@H](/C=C/S(C)(=O)=O)CC(=O)O (stereo in doubt) [Compound 26, Z-Asp-t-Leu-Pro-Asp-methyl vinyl sulfone]
Form field 'greater IC50' accepts I or II ; which applies? Kindly state the label of the option you pick.
I
(I: 16.9 µM, II: 0.66 µM)
